# ASSAY_PROTOCOL: in vivo
# CONDITIONS_USED: Sprague-Dawley, rat, po
PROPERTY_MEASURED: half-life (min)
Record the value in min, omitting the unit from your answer.

{"CHEM_SMILES": "O=C(c1ccc2cc(Oc3ccc(C(F)(F)F)cn3)ccc2n1)N1CC[C@@H](F)C1", "half-life, min": 326}
{"CHEM_SMILES": "CS(=O)(=O)C1CN(C(=O)c2ccc3cc(Oc4ccc(C(F)(F)F)cn4)ccc3n2)C1", "half-life, min": 204}
{"CHEM_SMILES": "CC(=O)c1ccc(Oc2ccc3nc(C(=O)N4CCNCC4)ccc3c2)cc1", "half-life, min": 198}
{"CHEM_SMILES": "O=C(c1ccc2cc(Oc3ccc(OC(F)(F)F)cn3)ccc2n1)N1CCNCC1", "half-life, min": 756}

From here, focus on the item given below.
Record CN1CCN(C(=O)COc2ccc3cc(Oc4ccccn4)ccc3n2)CC1 . Reported half-life: 203

====

# ASSAY_PROTOCOL: Drug concentration in brain of monoiodoacetate-induced acute Sprague-Dawley rat model of osteoarthritis at 3 mg/kg, po administered for 5 days and measured after 15 mins
# Type: ADME, organism-based
# CONDITIONS_USED: time 5 day, read-out: Ct
PROPERTY_MEASURED: concentration at 120 h (µg/mL)
Record the value in µg/mL, omitting the unit from your answer.

Record O=C(c1ccc2cc(Oc3ccc(C(F)(F)F)cn3)ccc2n1)N1CC[C@@H](F)C1 . Reported concentration at 120 h: 1.53

====

# ASSAY_PROTOCOL: Drug concentration in plasma of monoiodoacetate-induced Sprague-Dawley rat model of osteoarthritis at 30 mg/kg, po administered for 5 days and measured after 15 mins
# Format: ADME, organism-based
# CONDITIONS_USED: time 5 day
The reader will find reported concentration at 120 h values listed item by item below.
Record the value in ng/mL, omitting the unit from your answer.

Record O=C(c1ccc2cc(Oc3ccc(C(F)F)cn3)ccc2n1)N1CCNCC1 . Reported concentration at 120 h: 9110

Record O=C(c1ccc2cc(Oc3ccc(C(F)(F)F)cn3)ccc2n1)N1CCNCC1 . Reported concentration at 120 h: 1060

====

Recorded below: pIC50, system Sodium channel protein type 9 subunit alpha (Homo sapiens).
Friendly reminder that pIC50 comes from taking -log10 of the concentration in mol/L.

{"CHEM_SMILES": "O=C(c1ccc2cc(Oc3ccc(C(F)(F)F)cn3)ccc2n1)N1CC[C@@H](F)C1", "pIC50": 5.50}
{"CHEM_SMILES": "N#Cc1ccc(Oc2ccc3c(ccc(=O)n3CCN3CCCCC3)c2)cc1", "pIC50": 5.64}

From here, focus on the item given below.
Record CN1CCN(C(=O)COc2ccc3cc(Oc4ccccn4)ccc3n2)CC1 . Reported pIC50: 5.50

====

# TARGET_UNDER_TEST: Sodium channel protein type 2 subunit alpha (Homo sapiens)
# Sequence (Q99250 whole entry): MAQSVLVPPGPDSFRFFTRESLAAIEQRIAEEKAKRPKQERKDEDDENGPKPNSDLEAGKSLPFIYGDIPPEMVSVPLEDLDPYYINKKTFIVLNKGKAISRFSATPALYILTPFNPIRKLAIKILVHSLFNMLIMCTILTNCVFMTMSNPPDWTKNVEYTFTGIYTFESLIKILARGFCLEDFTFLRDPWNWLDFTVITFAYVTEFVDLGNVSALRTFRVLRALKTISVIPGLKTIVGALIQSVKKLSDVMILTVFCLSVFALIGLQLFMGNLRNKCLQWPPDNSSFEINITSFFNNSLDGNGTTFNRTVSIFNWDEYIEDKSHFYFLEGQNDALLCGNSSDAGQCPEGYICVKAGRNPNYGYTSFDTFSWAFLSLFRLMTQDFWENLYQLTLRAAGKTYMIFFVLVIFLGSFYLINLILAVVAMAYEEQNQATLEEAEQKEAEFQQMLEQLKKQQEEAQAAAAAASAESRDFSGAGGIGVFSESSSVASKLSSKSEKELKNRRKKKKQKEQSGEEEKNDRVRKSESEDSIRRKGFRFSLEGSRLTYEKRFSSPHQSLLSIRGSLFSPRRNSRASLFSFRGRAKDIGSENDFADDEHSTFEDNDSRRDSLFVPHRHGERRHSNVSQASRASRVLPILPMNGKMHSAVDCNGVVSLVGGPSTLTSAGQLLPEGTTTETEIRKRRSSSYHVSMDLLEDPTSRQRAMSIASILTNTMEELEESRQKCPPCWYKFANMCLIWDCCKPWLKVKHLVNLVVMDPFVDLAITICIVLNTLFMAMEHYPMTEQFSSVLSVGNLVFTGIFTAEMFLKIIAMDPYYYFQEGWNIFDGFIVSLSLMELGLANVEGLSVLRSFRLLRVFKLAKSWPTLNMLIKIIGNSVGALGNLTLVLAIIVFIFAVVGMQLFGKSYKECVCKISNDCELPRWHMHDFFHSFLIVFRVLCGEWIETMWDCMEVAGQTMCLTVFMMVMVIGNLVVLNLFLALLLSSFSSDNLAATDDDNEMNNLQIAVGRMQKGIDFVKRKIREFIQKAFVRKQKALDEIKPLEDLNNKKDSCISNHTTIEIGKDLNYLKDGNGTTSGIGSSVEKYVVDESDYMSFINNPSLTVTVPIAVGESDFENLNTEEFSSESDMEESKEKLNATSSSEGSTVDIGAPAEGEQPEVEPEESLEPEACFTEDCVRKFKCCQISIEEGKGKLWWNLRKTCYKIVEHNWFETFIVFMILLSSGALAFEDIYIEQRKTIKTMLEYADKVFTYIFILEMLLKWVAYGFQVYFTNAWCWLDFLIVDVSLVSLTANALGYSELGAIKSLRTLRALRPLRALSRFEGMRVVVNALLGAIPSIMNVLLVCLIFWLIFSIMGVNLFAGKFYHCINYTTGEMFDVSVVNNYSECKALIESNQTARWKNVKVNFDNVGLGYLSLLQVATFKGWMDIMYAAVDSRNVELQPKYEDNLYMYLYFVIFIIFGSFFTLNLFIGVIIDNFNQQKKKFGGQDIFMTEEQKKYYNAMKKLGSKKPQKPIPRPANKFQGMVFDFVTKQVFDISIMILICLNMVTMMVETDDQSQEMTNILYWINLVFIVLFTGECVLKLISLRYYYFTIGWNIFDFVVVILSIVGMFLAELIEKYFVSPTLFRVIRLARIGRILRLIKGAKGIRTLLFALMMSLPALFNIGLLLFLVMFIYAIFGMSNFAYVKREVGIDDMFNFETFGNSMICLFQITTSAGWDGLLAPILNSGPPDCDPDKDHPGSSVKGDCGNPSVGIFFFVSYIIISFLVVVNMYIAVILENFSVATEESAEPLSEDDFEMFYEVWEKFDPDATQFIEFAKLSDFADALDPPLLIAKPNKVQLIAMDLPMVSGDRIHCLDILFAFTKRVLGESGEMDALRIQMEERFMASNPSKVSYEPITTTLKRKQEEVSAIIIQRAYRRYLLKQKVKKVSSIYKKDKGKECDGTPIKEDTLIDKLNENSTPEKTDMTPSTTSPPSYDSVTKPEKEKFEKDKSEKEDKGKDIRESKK
# ASSAY_PROTOCOL: Inhibition of recombinant human Nav1.2 expressed in HEK293 cells incubated for 3 mins by FRET based membrane potential assay
PROPERTY_MEASURED: pIC50
Friendly reminder that pIC50 comes from taking -log10 of the concentration in mol/L.

{"CHEM_SMILES": "O=C(c1ccc2cc(Oc3ccc(C(F)F)cn3)ccc2n1)N1CCNCC1", "VAL": 4.89}
{"CHEM_SMILES": "N#Cc1ccc(Oc2ccc3c(ccc(=O)n3CCN3CCCCC3)c2)cc1", "VAL": 5.47}
{"CHEM_SMILES": "CN1CCN(C(=O)COc2ccc3cc(Oc4ccccn4)ccc3n2)CC1", "VAL": 4.70}

From here, focus on the item given below.
Record O=C(c1ccc2cc(Oc3ccc(C(F)(F)F)cn3)ccc2n1)N1CCNCC1 . Reported pIC50: 5.18

====

# ASSAY_PROTOCOL: in vivo
# CONDITIONS_USED: Sprague-Dawley, rat, iv
Use True when the recorded clearance is no lower than 2 L/h/kg; use False when it is lower.

{"MOLECULE": "O=C(c1ccc2cc(Oc3cc(C(F)(F)F)ccn3)ccc2n1)N1CCNCC1", "DISCRETE_LABEL": "True"}
{"MOLECULE": "O=C(c1ccc2cc(Oc3ccc(C(F)(F)F)cn3)ccc2n1)N1CCNC(C(F)(F)F)C1 (stereo not given)", "DISCRETE_LABEL": "True"}
{"MOLECULE": "N#Cc1ccc(Oc2ccc3c(ccc(=O)n3CCN3CCCCC3)c2)cc1", "DISCRETE_LABEL": "True"}

In: Determine whether measured clearance meets or exceeds 2 L/h/kg for O=C(c1ccc2cc(Oc3cccc(C(F)(F)F)n3)ccc2n1)N1CCNCC1
Out: True

In: Determine whether measured clearance meets or exceeds 2 L/h/kg for CN1CCN(C(=O)c2ccc3cc(Oc4ccccn4)ccc3n2)CC1
Out: True

In: Determine whether measured clearance meets or exceeds 2 L/h/kg for O=C(c1ccc2cc(Oc3ccc(C(F)(F)F)cn3)ccc2n1)N1CC[C@@H](F)C1
Out: False

In: Determine whether measured clearance meets or exceeds 2 L/h/kg for N#Cc1ccc(Oc2ccc3nc(C(=O)N4CCNCC4)ccc3c2)cc1
Out: False

In: Determine whether measured clearance meets or exceeds 2 L/h/kg for O=C(N[C@H]1C[C@@H](O)C1)c1ccc2cc(Oc3ccc(C(F)(F)F)cn3)ccc2n1
Out: True

In: Determine whether measured clearance meets or exceeds 2 L/h/kg for O=C(c1ccc2cc(Oc3ccc(C(F)(F)F)cn3)ccc2n1)N1CC[C@H](F)C1
Out: False

In: Determine whether measured clearance meets or exceeds 2 L/h/kg for CN1CCN(C(=O)COc2ccc3cc(Oc4ccccn4)ccc3n2)CC1
Out: True

====

# CONDITIONS_USED: rat, in vivo, po
Label MET when Vdss < 5 L/kg; otherwise NOT MET.

Before answering, review these 4 worked examples.
{"COMPOUND": "O=C(c1ccc2cc(Oc3ccc(C(F)(F)F)cn3)ccc2n1)N1CCNC(C(F)(F)F)C1 (stereo not given)", "DISCRETE_LABEL": "NOT MET"}
{"COMPOUND": "O=C(c1ccc2cc(Oc3ccc(C(F)(F)F)cn3)ccc2n1)N1CC[C@H](F)C1", "DISCRETE_LABEL": "NOT MET"}
{"COMPOUND": "O=C(c1ccc2cc(Oc3ccc(C(F)(F)F)cn3)ccc2n1)N1CCNCC1", "DISCRETE_LABEL": "NOT MET"}
{"COMPOUND": "O=C(c1ccc2cc(Oc3ccc(C(F)(F)F)cn3)ccc2n1)N1CC[C@@H](F)C1", "DISCRETE_LABEL": "MET"}

With those in mind, consider the next compound.
In: Could you please tell me whether Vdss recorded for O=C(c1ccc2cc(Oc3ccc(C(F)F)cn3)ccc2n1)N1CCNCC1 is less than 5 L/kg?
Out: NOT MET

====

# ASSAY_PROTOCOL: Oral bioavailability in monkey
# Format: ADME, organism-based, Macaca mulatta
# CONDITIONS_USED: rhesus monkey, in vivo
PROPERTY_MEASURED: bioavailability (%)
Record the value in %, omitting the unit from your answer.

Record O=C(c1ccc2cc(Oc3ccc(C(F)(F)F)cn3)ccc2n1)N1CC[C@@H](F)C1 . Reported bioavailability: 110

====

# ASSAY_PROTOCOL: in vitro
# CONDITIONS_USED: dog, MDCK
PROPERTY_MEASURED: Papp (×10⁻⁶ cm/s)
Record the value in ×10⁻⁶ cm/s, omitting the unit from your answer.

{"CHEM_SMILES": "O=C(COc1ccc2cc(Oc3ccccn3)ccc2n1)N1CCCCC1", "PROPERTY_MEASURED": "Papp", "VAL": 66.9}

Record N#Cc1ccc(Oc2ccc3nc(OCC(=O)N4CCNC(=O)C4)ccc3c2)cc1 . Reported Papp: 32.1

Record O=C(c1ccc2cc(Oc3cc(C(F)(F)F)ccn3)ccc2n1)N1CCNCC1 . Reported Papp: 49

Record NC(=O)CNC(=O)COc1ccc2cc(Oc3ccccn3)ccc2n1 . Reported Papp: 8.7

Record O=C(c1ccc2cc(Oc3cccc(C(F)(F)F)n3)ccc2n1)N1CCNCC1 . Reported Papp: 52.2

Record N#Cc1ccc(Oc2ccc3nc(C(=O)N4CCNCC4)ccc3c2)cc1 . Reported Papp: 0.4

Record O=C(c1ccc2cc(Oc3ccc(C(F)(F)F)cn3)ccc2n1)N1CCN(CC(F)(F)F)CC1 . Reported Papp: 24.6

Record CC(=O)c1ccc(Oc2ccc3nc(C(=O)N4CCNCC4)ccc3c2)cc1 . Reported Papp: 19.7

Record O=C(COc1ccc2cc(Oc3ccccn3)ccc2n1)N1CCNCC1 . Reported Papp: 29.4

Record O=C1CN(C(=O)COc2ccc3cc(Oc4ccc(C(F)(F)F)cn4)ccc3n2)CCN1 . Reported Papp: 44.1

====

# ASSAY_PROTOCOL: Drug concentration in plasma of monoiodoacetate-induced chronic Sprague-Dawley rat model of osteoarthritis at 10 mg/kg, po administered twice for 1 day
# Type: ADME, organism-based
PROPERTY_MEASURED: concentration at 24 h (ng/mL)
Record the value in ng/mL, omitting the unit from your answer.

Record O=C(c1ccc2cc(Oc3ccc(C(F)(F)F)cn3)ccc2n1)N1CC[C@@H](F)C1 . Reported concentration at 24 h: 3440

Sourced from ChEMBL document CHEMBL5143671
